target or system: T1, APJ (orphan G protein-coupled receptor protein)
T1 chain: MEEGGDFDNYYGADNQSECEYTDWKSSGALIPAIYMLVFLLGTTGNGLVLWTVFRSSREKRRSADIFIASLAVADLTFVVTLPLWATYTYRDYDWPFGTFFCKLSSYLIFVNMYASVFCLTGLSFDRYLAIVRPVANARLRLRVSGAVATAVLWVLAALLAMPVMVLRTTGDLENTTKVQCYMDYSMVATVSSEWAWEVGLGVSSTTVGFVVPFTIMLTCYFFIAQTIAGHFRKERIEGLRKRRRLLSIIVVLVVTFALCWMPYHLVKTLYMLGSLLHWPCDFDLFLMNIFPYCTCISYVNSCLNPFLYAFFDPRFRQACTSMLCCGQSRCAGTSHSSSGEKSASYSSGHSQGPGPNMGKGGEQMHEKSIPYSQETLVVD
experiment: radioligand competition, 125I-labelled compound of Ref. Ex. 1 (100 pM), CHO-A10 membrane fraction
Starred links: 1 amine or outer side, 2 acyl side, 3 side chain; linkers in the order of their positions; H or OH if unused. Non-standard residues stand in square brackets, D forms with d. No end group written: not given here. Pyn = 1-pyrenylalanine, O=C([C@H](Cc1ccc2ccc3cccc4ccc1c2c34)N[*:1])[*:2]; Lys(Me2) = CN(C)CCCC[C@H](N)C(=O)O; Cha = N[C@@H](CC1CCCCC1)C(=O)O
readout: IC50 (nM)

INSERT INTO measurements (binder, measured_value) VALUES
  ('RP[Lys(Me2)]LSARGPMPF (also called Compound in Ex. 63) [Arg-Pro-Lys(Me)2-Leu-Ser-Ala-Arg-Gly-Pro-Met-Pro-Phe]', 0.33);

I: RPRLSA[Lys(Me2)]GPMPF (also called Compound in Ex. 64) [Arg-Pro-Arg-Leu-Ser-Ala-Lys(Me)2-Gly-Pro-Met-Pro-Phe]
II: RPRLSARGP[Cha][Pyn] (not fully specified; printed as Arg-Pro-Arg-Leu-Ser-Ala-Arg-Gly-Pro-Cha-Pyn, also called Compound in Ex. 60) [Arg-Pro-Arg-Leu-Ser-Ala-Arg-Gly-Pro-Cha-Pyn]
III: RPRLSARGP[Cha]P[Pyn] (not fully specified; printed as Arg-Pro-Arg-Leu-Ser-Ala-Arg-Gly-Pro-Cha-Pro-Pyn, also called Compound in Ex. 61) [Arg-Pro-Arg-Leu-Ser-Ala-Arg-Gly-Pro-Cha-Pro-Pyn]
IV: RRQRPRLSARGG[Cha] (not fully specified; printed as Arg-Arg-Gln-Arg-Pro-Arg-Leu-Ser-Ala-Arg-Gly-Gly-Cha, also called Compound in Ex. 62) [Arg-Arg-Gln-Arg-Pro-Arg-Leu-Ser-Ala-Arg-Gly-Gly-Cha]
Sort the binders on IC50; start with the lowest figure. Could you list the labels in the order requested?
IV, I, II, III
